- System: HepG2
- assay.procedure: Antiproliferative activity against human HepG2 cells treated for 72 hrs by MTT assay
- Type: functional, cell-based
- condition.label: HepG2, 72 h
In this section, each of the compounds is paired with its reported pIC50.
Answer as the number alone; pIC50 is minus log10 of concentration in mol/L.

// pIC50 lookup, key: COc1ccc2[nH]c3c(c2c1)CCN1C(=O)c2cc(F)ccc2N(c2ccc(Br)c(F)c2)C31 (configuration not stated)
4.80

// pIC50 lookup, key: COc1ccc2[nH]c3c(c2c1)CCN1C(=O)c2cc(F)ccc2N(c2cc(F)cc(F)c2)C31 (configuration not stated)
5.54

// pIC50 lookup, key: O=C1c2cc(F)cc(F)c2N(c2cccc(F)c2)C2c3[nH]c4ccc(Cl)cc4c3CCN12 (configuration not stated)
6.17
